So I've got a bunch of molecules here, and I need their MIC values.
System: Bacillus subtilis
assay notes: Antibacterial activity against Bacillus subtilis ATCC 6633 assessed as growth inhibition after 24 hrs by CLSI M7-A9 broth microdilution method
Format: functional
measurement conditions: ATCC 6633, 24 h
One number for each entry, in µg/mL.

Answered examples (5):
[[record]]
molecule = "C=C(NC(=O)c1csc(-c2ccc3c(n2)-c2csc(n2)-c2csc(n2)[C@@H]2CCCN2C(=O)[C@H](Cc2ccc(O)cc2)NC(=O)c2csc(n2)[C@H](Cc2ccccc2)NC(=O)c2csc(n2)[C@H](CC(N)=O)NC(=O)c2nc-3oc2C)n1)C(=O)N[C@@H](C)C(=O)N1CCC[C@H]1C(N)=O"
result = 8

[[record]]
molecule = "Cc1oc2nc1C(=O)N[C@@H](CC(N)=O)c1nc(cs1)C(=O)N[C@@H](Cc1ccccc1)c1nc(cs1)C(=O)N[C@@H](Cc1ccc(O)cc1)C(=O)N1CCC[C@H]1c1nc(cs1)-c1nc(cs1)-c1nc(-c3nc(C(N)=O)cs3)ccc1-2"
result = 8

[[record]]
molecule = "Cc1oc2nc1C(=O)N[C@@H](CC(N)=O)c1nc(cs1)C(=O)N[C@@H](Cc1ccccc1)c1nc(cs1)C(=O)N[C@@H](Cc1ccc(O)cc1)C(=O)N1CCC[C@H]1c1nc(cs1)-c1nc(cs1)-c1nc(-c3nc(C(=O)O)cs3)ccc1-2"
result = 8

[[record]]
molecule = "C=C(NC(=O)C(=C)NC(=O)[C@@H]1CCCN1C(=O)[C@H](C)NC(=O)C(=C)NC(=O)c1csc(-c2ccc3c(n2)-c2csc(n2)-c2csc(n2)[C@@H]2CCCN2C(=O)[C@H](Cc2ccc(O)cc2)NC(=O)[C@H]2CSC(=N2)[C@H](Cc2ccccc2)NC(=O)c2csc(n2)[C@H](CC(N)=O)NC(=O)c2nc-3oc2C)n1)C(N)=O"
result = 0.25

[[record]]
molecule = "C=C(NC(=O)[C@@H]1CCCN1C(=O)[C@H](C)NC(=O)C(=C)NC(=O)c1csc(-c2ccc3c(n2)-c2csc(n2)-c2csc(n2)[C@@H]2CCCN2C(=O)[C@H](Cc2ccc(O)cc2)NC(=O)c2csc(n2)[C@H](Cc2ccccc2)NC(=O)c2csc(n2)[C@H](CC(N)=O)NC(=O)c2nc-3oc2C)n1)C(N)=O"
result = 0.5


Give one value of MIC per listed molecule.
1. C=C(NC(=O)c1csc(-c2ccc3c(n2)-c2csc(n2)-c2csc(n2)[C@@H]2CCCN2C(=O)[C@H](Cc2ccc(O)cc2)NC(=O)C2CSC(=N2)[C@H](Cc2ccccc2)NC(=O)c2csc(n2)[C@H](CC(N)=O)NC(=O)c2nc-3oc2C)n1)C(=O)N[C@@H](C)C(=O)N1CCC[C@H]1C(N)=O (some centres not stated)
2. CCOC(=O)c1csc(-c2ccc3c(n2)-c2csc(n2)-c2csc(n2)[C@@H]2CCCN2C(=O)[C@H](Cc2ccc(O)cc2)NC(=O)C2CSC(=N2)[C@H](Cc2ccccc2)NC(=O)c2csc(n2)[C@H](CC(N)=O)NC(=O)c2nc-3oc2C)n1 (some centres not stated)
3. C=C(NC(=O)[C@@H]1CCCN1C(=O)[C@H](C)NC(=O)C(=C)NC(=O)c1csc(-c2ccc3c(n2)-c2csc(n2)-c2csc(n2)[C@@H]2CCCN2C(=O)[C@H](Cc2ccc(O)cc2)NC(=O)C2CSC(=N2)[C@H](Cc2ccccc2)NC(=O)c2csc(n2)[C@H](CC(N)=O)NC(=O)c2nc-3oc2C)n1)C(N)=O (some centres not stated)
4. C=C(NC(=O)C(=C)NC(=O)[C@@H]1CCCN1C(=O)[C@H](C)NC(=O)C(=C)NC(=O)c1csc(-c2ccc3c(n2)-c2csc(n2)-c2csc(n2)[C@@H]2CCCN2C(=O)[C@H](Cc2ccc(O)cc2)NC(=O)c2csc(n2)[C@H](Cc2ccccc2)NC(=O)c2csc(n2)[C@H](CC(N)=O)NC(=O)c2nc-3oc2C)n1)C(N)=O
5. Cc1oc2nc1C(=O)N[C@@H](CC(N)=O)c1nc(cs1)C(=O)N[C@@H](Cc1ccccc1)c1nc(cs1)C(=O)N[C@@H](Cc1ccc(O)cc1)C(=O)N1CCC[C@H]1c1nc(cs1)-c1nc(cs1)-c1nc(-c3nc(C(=O)N[C@H]4CC[C@H](C(=O)O)CC4)cs3)ccc1-2

1: 0.25; 2: 8; 3: 0.5; 4: 1; 5: 0.03
